The values you see were collected from patent US20240391948A1.

System: J774A.1 (Mouse BALB/c monocyte macrophage cell line) cells
Assay: LPS-induced TNF-α secretion inhibition in J774A.1 cells
Type: cell-based
Conditions: J774.A1, 1 μM compound, graded compared to taurodeoxycholic acid (positive control), read-out: TNF-α production inhibition grade
Please provide measured inhibition at 1 µM for the entries that follow.

Worked cases, answers included:
[[record]]
given_smiles = "CC(C)C[C@H](CS(=O)(=O)O)NC(=O)CC[C@@H](C)[C@H]1CC[C@H]2[C@@H]3CC[C@@H]4CC(=O)CC[C@]4(C)[C@H]3CC[C@]12C"
result = "< 20%"

[[record]]
given_smiles = "C[C@H](CCC(=O)NCCCO)[C@H]1CC[C@H]2[C@@H]3[C@H](O)C[C@@H]4C[C@H](O)CC[C@]4(C)[C@H]3C[C@H](O)[C@]12C"
result = "50 to 100%"


Q: Tell me the measured inhibition at 1 µM of CC[C@H]1[C@@H](O)[C@@H]2[C@H](C[C@H](O)[C@]3(C)[C@@H]([C@H](C)CCC(=O)N4CC(S(=O)(=O)O)C4)CC[C@@H]23)[C@@]2(C)CC[C@@H](O)C[C@@H]12 , please.
Ans: < 20%
